Values were extracted from the supplement of paper PMC6555819.

# Test system: RARg:RXRa (NR concentration 270 nM, RXRa partner concentration 90 nM)
# Assay info: PBM binding z-score (relative to random genomic background probes); higher = stronger binding; sequences stand for … in GC…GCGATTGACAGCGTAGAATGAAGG
If the reported PBM binding z-score equals or exceeds 1, assign rule met. If not, assign rule not met.

- Seq: "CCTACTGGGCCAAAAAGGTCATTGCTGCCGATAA"
  Label value: "rule met"
- Seq: "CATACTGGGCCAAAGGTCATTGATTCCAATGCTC"
  Label value: "rule met"
- Seq: "GCGACTGGGGCAGCAGCAGGTTACCATAACTTAA"
  Label value: "rule not met"
- Seq: "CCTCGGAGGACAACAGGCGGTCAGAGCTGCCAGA"
  Label value: "rule met"
- Seq: "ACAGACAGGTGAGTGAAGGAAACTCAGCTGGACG"
  Label value: "rule not met"
- Seq: "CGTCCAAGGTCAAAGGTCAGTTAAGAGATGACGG"
  Label value: "rule met"
- Seq: "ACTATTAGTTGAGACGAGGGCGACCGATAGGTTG"
  Label value: "rule not met"
- Seq: "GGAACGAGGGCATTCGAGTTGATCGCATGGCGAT"
  Label value: "rule met"
- Seq: "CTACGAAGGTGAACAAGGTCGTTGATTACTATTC"
  Label value: "rule met"
- Seq: "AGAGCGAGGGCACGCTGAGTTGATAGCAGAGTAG"
  Label value: "rule met"
- Seq: "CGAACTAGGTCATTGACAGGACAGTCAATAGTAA"
  Label value: "rule met"
- Seq: "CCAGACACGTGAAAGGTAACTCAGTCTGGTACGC"
  Label value: "rule not met"
- Seq: "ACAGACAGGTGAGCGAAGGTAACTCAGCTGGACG"
  Label value: "rule not met"
- Seq: "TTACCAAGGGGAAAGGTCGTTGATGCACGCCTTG"
  Label value: "rule met"
- Seq: "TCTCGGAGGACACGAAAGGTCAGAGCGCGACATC"
  Label value: "rule met"
- Seq: "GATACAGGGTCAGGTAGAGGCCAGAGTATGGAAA"
  Label value: "rule met"
- Seq: "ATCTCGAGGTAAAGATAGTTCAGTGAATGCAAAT"
  Label value: "rule not met"
- Seq: "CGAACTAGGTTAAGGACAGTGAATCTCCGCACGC"
  Label value: "rule not met"
- Seq: "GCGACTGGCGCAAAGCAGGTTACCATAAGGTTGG"
  Label value: "rule not met"
- Seq: "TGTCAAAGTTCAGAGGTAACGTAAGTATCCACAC"
  Label value: "rule met"
- Seq: "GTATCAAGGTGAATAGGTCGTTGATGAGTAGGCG"
  Label value: "rule met"
- Seq: "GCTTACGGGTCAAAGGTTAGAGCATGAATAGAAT"
  Label value: "rule met"
- Seq: "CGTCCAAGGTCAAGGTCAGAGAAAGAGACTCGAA"
  Label value: "rule met"
- Seq: "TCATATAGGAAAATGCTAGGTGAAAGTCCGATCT"
  Label value: "rule not met"
- Seq: "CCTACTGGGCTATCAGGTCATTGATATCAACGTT"
  Label value: "rule met"
- Seq: "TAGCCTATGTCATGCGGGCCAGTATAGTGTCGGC"
  Label value: "rule not met"
- Seq: "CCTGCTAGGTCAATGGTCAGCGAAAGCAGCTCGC"
  Label value: "rule met"
- Seq: "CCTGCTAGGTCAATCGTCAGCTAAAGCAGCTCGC"
  Label value: "rule met"
- Seq: "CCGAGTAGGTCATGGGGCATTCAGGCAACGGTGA"
  Label value: "rule met"
- Seq: "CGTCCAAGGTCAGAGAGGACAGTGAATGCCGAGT"
  Label value: "rule met"
- Seq: "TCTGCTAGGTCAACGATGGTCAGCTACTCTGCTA"
  Label value: "rule met"
- Seq: "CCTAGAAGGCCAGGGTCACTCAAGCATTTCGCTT"
  Label value: "rule met"
- Seq: "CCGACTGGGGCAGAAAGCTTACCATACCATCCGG"
  Label value: "rule not met"
- Seq: "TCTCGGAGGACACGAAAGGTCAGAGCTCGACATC"
  Label value: "rule met"
- Seq: "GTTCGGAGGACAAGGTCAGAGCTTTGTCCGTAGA"
  Label value: "rule met"
- Seq: "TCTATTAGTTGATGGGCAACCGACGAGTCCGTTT"
  Label value: "rule not met"
- Seq: "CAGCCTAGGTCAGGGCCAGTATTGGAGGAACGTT"
  Label value: "rule met"
- Seq: "TCTTGTAGATCAACAGGCGGTTAAGAAAGATCGA"
  Label value: "rule not met"
- Seq: "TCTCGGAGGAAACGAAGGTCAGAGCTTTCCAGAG"
  Label value: "rule met"
- Seq: "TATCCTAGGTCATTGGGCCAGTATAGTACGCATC"
  Label value: "rule met"
- Seq: "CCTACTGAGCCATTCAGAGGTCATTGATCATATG"
  Label value: "rule met"
- Seq: "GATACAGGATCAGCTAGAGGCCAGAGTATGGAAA"
  Label value: "rule met"
